// data source = patent US10899709B2

System: Alopecurus myosuroides
test: Post-emergence herbicidal effect
Format: in vivo
condition set: 80 g/ha, visual assessment after about 3 weeks
Reported Post-emergence effectiveness ALOMY values for the following compounds.
endpoint name: Post-emergence effectiveness ALOMY

INSERT INTO measurements (compound, result_value) VALUES
  ('CCc1cc(C#CC2CC2)cc(C)c1C1=C(OC(=O)C(C)C)C2(CCC(COC)C2)NC1=O (stereo not shown) [Example Ia-11]', '90%'),
  ('CC#Cc1cc(C)c(C2=C(OC(=O)C(C)C)C3(CCC(COC)C3)NC2=O)c(CC)c1 (stereo not shown) [Example Ia-7]', '100%'),
  ('CC#Cc1cc(C)c(C2=C(OC(=O)C(C)C)C3(CCC(COC)C3)NC2=O)c(CC)c1 (stereo not shown) [Example Ia-6]', '100%'),
  ('COCC1CCC2(CC1)NC(=O)C(c1c(C)cc(C#CC3CC3)cc1C)=C2O (stereo not shown)', '100%');

---

System: Alopecurus myosuroides
test: Post-emergence herbicidal effect
Type: in vivo
condition set: 80 g/ha, visual assessment after about 3 weeks
endpoint name: Post-emergence effectiveness ALOMY (%)

INSERT INTO measurements (compound, result_value) VALUES
  ('CCOC(=O)OC1=C(c2c(C)cc(C#CC3CC3)cc2CC)C(=O)N[C@]12CC[C@H](COC)C2 [Example Ia-1]', 80),
  ('CCc1cc(C#CC2CC2)cc(C)c1C1=C(O)C2(CCC(COC)C2)NC1=O (stereo not shown) [Example I-12]', 90),
  ('CCc1cc(C#CC2CC2)cc(C)c1C1=C(OC(=O)C(C)C)C2(CCC(COC)C2)NC1=O (mixture of isomers) [Example Ia-10]', 80),
  ('CCc1cc(C#CC2CC2)cc(C)c1C1=C(O)C2(CCC(COC)C2)NC1=O (stereo not shown) [Example I-11]', 100),
  ('CC#Cc1cc(C)c(C2=C(O)C3(CCC(CCOC)CC3)NC2=O)c(CC)c1 (stereo not shown) [Example I-2]', 100),
  ('CC#Cc1cc(C)c(C2=C(OC(=O)C(C)C)C3(CCC(COC)C3)NC2=O)c(CC)c1 (stereo not shown) [Example Ia-9]', 100),
  ('CCc1cc(C#CC2CC2)cc(C)c1C1=C(O)C2(CCC(COC)CC2)NC1=O (stereo not shown) [Example I-7]', 100),
  ('CC#Cc1cc(C)c(C2=C(O)C3(CCC(COC)C3)NC2=O)c(CC)c1 (stereo not shown) [Example I-10]', 100),
  ('CCc1cc(C#CC2CC2)cc(C)c1C1=C(OC(=O)C(C)C)C2(CCC(COC)C2)NC1=O (stereo not shown) [Example Ia-12]', 90),
  ('COCC1CCC2(C1)NC(=O)C(c1c(C)cc(C#CC3CC3)cc1C)=C2O (mixture of isomers) [Example I-14]', 80),
  ('COCC1CCC2(C1)NC(=O)C(c1c(C)cc(C#CC3CC3)cc1C)=C2O (stereo not shown) [Example I-13]', 80),
  ('CC#Cc1cc(C)c(C2=C(OC(=O)C(C)C)C3(CCC(COC)C3)NC2=O)c(CC)c1 (stereo not shown) [Example Ia-8]', 100),
  ('CC#Cc1cc(C)c(C2=C(O)C3(CCC(COC)C3)NC2=O)c(CC)c1 (stereo not shown) [Example I-9]', 100),
  ('CC#Cc1cc(C)c(C2=C(OC(=O)C(C)C)C3(CCC(COC)CC3)NC2=O)c(CC)c1 (stereo not shown) [Ia-3]', 100),
  ('CC#Cc1cc(C)c(C2=C(O)C3(CCC(COC)CC3)NC2=O)c(CC)c1 (stereo not shown) [Example I-5]', 100),
  ('CC#Cc1cc(CC)c(C2=C(O)C3(CCC(CCOC)CC3)NC2=O)c(CC)c1 (stereo not shown) [Example I-1]', 90);
